biological target: Nuclear receptor subfamily 1 group I member 2 (Homo sapiens); assay: Human pregnane X receptor (PXR) small molecule agonists, qHTS assay (AID 1346982); settings: PXR-Luc HepG2, CYP3A4 luciferase reporter, 24 h; series mostly up to 92.4 µM; also: nearly all actives have a fitted effect of over 35% in size
Inconclusive results are not listed. The source made the active and inactive calls. Calls follow the shape of the dose curve; as a rule, active = well fitted activation curve with a large enough effect in the repeat runs; inconclusive = weak or mixed curves; inactive = no such curve, though single readings can be large or run the other way.
Outcomes: active, inactive

compound: NS(=O)(=O)c1ccc(N2CCCCS2(=O)=O)cc1
system under test: Nuclear receptor subfamily 1 group I member 2 (Homo sapiens)
label value: inactive
--
compound: CCCCCCCC/C=C\CCCCCCCC(=O)OCC
system under test: Nuclear receptor subfamily 1 group I member 2 (Homo sapiens)
label value: inactive
--
compound: CC[N+](C)(CC)CCOC(=O)C(O)(c1ccccc1)C1CCCCC1 (configuration not stated)
system under test: Nuclear receptor subfamily 1 group I member 2 (Homo sapiens)
label value: inactive
--
compound: Cc1ccccc1S(=O)(=O)O
system under test: Nuclear receptor subfamily 1 group I member 2 (Homo sapiens)
label value: inactive
--
compound: NCCCN1CCOCC1
system under test: Nuclear receptor subfamily 1 group I member 2 (Homo sapiens)
label value: inactive
--
compound: CCOc1ccc(N)c([N+](=O)[O-])c1
system under test: Nuclear receptor subfamily 1 group I member 2 (Homo sapiens)
label value: inactive
--
compound: Nc1ccc(S(=O)(=O)Nc2ccccc2)cc1
system under test: Nuclear receptor subfamily 1 group I member 2 (Homo sapiens)
label value: inactive
--
compound: Nc1c(CC(=O)O)cccc1C(=O)c1ccc(Br)cc1
system under test: Nuclear receptor subfamily 1 group I member 2 (Homo sapiens)
label value: inactive
--
compound: CN(C)CCN(Cc1ccccc1)c1ccccn1
system under test: Nuclear receptor subfamily 1 group I member 2 (Homo sapiens)
label value: active
--
compound: NCc1ccccc1Sc1ccccc1CO
system under test: Nuclear receptor subfamily 1 group I member 2 (Homo sapiens)
label value: inactive
--
compound: COC(=O)c1ccc(I)cc1S(=O)(=O)NC(=O)Nc1nc(C)nc(OC)n1
system under test: Nuclear receptor subfamily 1 group I member 2 (Homo sapiens)
label value: inactive
--
compound: CO[C@@H]1[C@H](OC(=O)/C=C/C=C/C=C/C=C/C(=O)O)CC[C@]2(CO2)[C@H]1[C@@]1(C)O[C@@H]1CC=C(C)C
system under test: Nuclear receptor subfamily 1 group I member 2 (Homo sapiens)
label value: active
--
compound: CC(=O)[O][Al][O]C(C)=O
system under test: Nuclear receptor subfamily 1 group I member 2 (Homo sapiens)
label value: inactive
--
compound: Cc1cc(C(=O)O)ccc1[N+](=O)[O-]
system under test: Nuclear receptor subfamily 1 group I member 2 (Homo sapiens)
label value: inactive
--
compound: Cc1ncc(CO)c(C=O)c1O
system under test: Nuclear receptor subfamily 1 group I member 2 (Homo sapiens)
label value: inactive
--
compound: CCN(CC)CCNC(=O)c1cc(Br)c(N)cc1OC
system under test: Nuclear receptor subfamily 1 group I member 2 (Homo sapiens)
label value: inactive
--
compound: CCN(CC)c1ccc2c(-c3ccccc3C(=O)O)c3ccc(=[N+](CC)CC)cc-3oc2c1
system under test: Nuclear receptor subfamily 1 group I member 2 (Homo sapiens)
label value: active
--
compound: c1ccc(CNCCNCc2ccccc2)cc1
system under test: Nuclear receptor subfamily 1 group I member 2 (Homo sapiens)
label value: inactive
--
compound: O=C(O)c1nc(Cl)c(Cl)c(Cl)c1Cl
system under test: Nuclear receptor subfamily 1 group I member 2 (Homo sapiens)
label value: inactive
--
compound: Nc1cccc(S(=O)(=O)c2cccc(N)c2)c1
system under test: Nuclear receptor subfamily 1 group I member 2 (Homo sapiens)
label value: inactive
--
compound: OC(CN1CCC(Cc2ccc(F)cc2)CC1)c1ccc(Cl)cc1 (configuration not stated)
system under test: Nuclear receptor subfamily 1 group I member 2 (Homo sapiens)
label value: inactive
--
compound: COc1cccc(N(C)C(=S)Oc2ccc3c(c2)CCCC3)n1
system under test: Nuclear receptor subfamily 1 group I member 2 (Homo sapiens)
label value: active
--
compound: COc1ccc(S(=O)(=O)N2C(=O)[C@@](c3ccccc3OC)(N3C[C@H](O)C[C@H]3C(=O)N(C)C)c3cc(Cl)ccc32)c(OC)c1
system under test: Nuclear receptor subfamily 1 group I member 2 (Homo sapiens)
label value: active
--
compound: O=S(c1cc(Cl)cc(Cl)c1O)c1cc(Cl)cc(Cl)c1O
system under test: Nuclear receptor subfamily 1 group I member 2 (Homo sapiens)
label value: inactive
--
compound: Brc1c2ccccc2cc2ccccc12
system under test: Nuclear receptor subfamily 1 group I member 2 (Homo sapiens)
label value: active
--
compound: N=c1ccn2c(n1)O[C@H]1[C@H](O)[C@@H](CO)O[C@H]12
system under test: Nuclear receptor subfamily 1 group I member 2 (Homo sapiens)
label value: inactive
--
compound: COc1cc2nc(Cl)nc(N)c2cc1OC
system under test: Nuclear receptor subfamily 1 group I member 2 (Homo sapiens)
label value: inactive
--
compound: COCC(C)OC(C)=O (configuration not stated)
system under test: Nuclear receptor subfamily 1 group I member 2 (Homo sapiens)
label value: inactive
--
compound: O=C(Nc1ccc(S(=O)(=O)N2CCOCC2)cc1)c1cc(Cl)ccc1NS(=O)(=O)c1ccc(Cl)s1
system under test: Nuclear receptor subfamily 1 group I member 2 (Homo sapiens)
label value: active
--
compound: OCCNCc1ccccc1
system under test: Nuclear receptor subfamily 1 group I member 2 (Homo sapiens)
label value: inactive
--
compound: CC(C)Cc1ccc(C(C)C(=O)OCc2ccccn2)cc1 (configuration not stated)
system under test: Nuclear receptor subfamily 1 group I member 2 (Homo sapiens)
label value: inactive
--
compound: COc1ccc(C(=O)N2CCN(CC(=O)N3CCOCC3)CC2)cc1
system under test: Nuclear receptor subfamily 1 group I member 2 (Homo sapiens)
label value: inactive
--
compound: C[N+]1(CC2COC(c3ccccc3)(C3CCCCC3)O2)CCCCC1 (configuration not stated)
system under test: Nuclear receptor subfamily 1 group I member 2 (Homo sapiens)
label value: inactive
--
compound: CCOc1ccc(N=Nc2ccc(/C=C/c3ccc(N=Nc4ccc(OCC)cc4)cc3S(=O)(=O)O)c(S(=O)(=O)O)c2)cc1
system under test: Nuclear receptor subfamily 1 group I member 2 (Homo sapiens)
label value: inactive
--
compound: Nc1ccc(N)c2c1C(=O)c1ccccc1C2=O
system under test: Nuclear receptor subfamily 1 group I member 2 (Homo sapiens)
label value: inactive
--
compound: COc1ccc(C(=O)c2ccc(OC)cc2O)c(O)c1
system under test: Nuclear receptor subfamily 1 group I member 2 (Homo sapiens)
label value: active
--
compound: O=C1[C@H]2CCCC[C@H]2C(=O)N1CCCCN1CCN(c2nsc3ccccc23)CC1
system under test: Nuclear receptor subfamily 1 group I member 2 (Homo sapiens)
label value: active
--
compound: C=CC1CC2C=CC1C2 (configuration not stated)
system under test: Nuclear receptor subfamily 1 group I member 2 (Homo sapiens)
label value: inactive
--
compound: CCC(Cl)CCC(Cl)C(Cl)CC(Cl)C(Cl)C(Cl)CCl (configuration not stated)
system under test: Nuclear receptor subfamily 1 group I member 2 (Homo sapiens)
label value: inactive
--
compound: ClCCOCCOCCCl
system under test: Nuclear receptor subfamily 1 group I member 2 (Homo sapiens)
label value: inactive
--
compound: CCOC(=O)C1=C[C@]2(CC)CCCN3CCc4c(n1c1ccccc41)[C@@H]32
system under test: Nuclear receptor subfamily 1 group I member 2 (Homo sapiens)
label value: active
--
compound: CC(=O)OC[C@H]1O[C@@H](n2ncc(=O)[nH]c2=O)[C@H](OC(C)=O)[C@@H]1OC(C)=O
system under test: Nuclear receptor subfamily 1 group I member 2 (Homo sapiens)
label value: inactive
